protein stability index values for the variants below.
B1: C9orf9 (parent)
chain: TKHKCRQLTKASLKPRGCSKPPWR

Variants of: B1
Assay: protein stability index of a GFP-peptide fusion (GPS, HEK-293T) (PSI 1-6); higher = more stable;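 further: lentivirally expressed fusions sorted by FACS into six bins by GFP to DsRed ratio, PSI derived from sequencing read proportions per bin multiplied by bin number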
Conditions: c terminus: a fixed tail appended

Worked cases, answers included:
# CHANGES, protein stability index
records = [
    ("C18D", 3.06),
    ("L8N", 3.04),
    ("L8H", 2.98),
]

QUERY: # lookup: protein stability index of A11H
RESULT: 3.04

QUERY: Next entry: K10S
RESULT: 3.07

QUERY: Next entry: G17R
RESULT: 3.03

QUERY: Next entry: L8K
RESULT: 3.02

QUERY: Next entry: P21V
RESULT: 3.09

QUERY: Next entry: C18R
RESULT: 3.03

QUERY: Next entry: P15S
RESULT: 3

QUERY: Next entry: T1S
RESULT: 2.96

QUERY: Next entry: T9V
RESULT: 2.92
